- Tested on: Mus musculus
- test protocol: Mutagenicity in Swiss albino mouse at 100 mg/kg after 30 hrs by micronucleus test
- Format: toxicity, organism-based
- Design: dose 100 mg/kg
- measurement context: in vivo
readout type: Activity

Quick note, Activity for O=C(Cn1ccnc1[N+](=O)[O-])NCc1ccccc1 landed at Toxic

Quick note, Activity for NC(=S)N/N=C(\CNC(=O)CCC(=O)O)c1ccc([N+](=O)[O-])cc1 landed at Non-toxic

Quick note, Activity for NC(=S)N/N=C(\CO)c1ccc([N+](=O)[O-])cc1 landed at Non-toxic

Quick note, Activity for Br.NC/C(=N\NC(N)=S)c1ccc([N+](=O)[O-])cc1 landed at Non-toxic
